Test: NCI Yeast Anticancer Drug Screen. Data for the wt1 strain (AID 149);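 further: 0% = growth of vehicle-treated wt1 cultures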
Conditions: S. cerevisiae wt1 strain (SPY 50644) growth inhibition; at 100.0 µM; stronger effect = higher value
Compounds without any hit were thinned out: in the full panel of roughly 79,000, 15% have a hit.
Rule: fulfilled for growth inhibition not less than 90%, not fulfilled for anything less.

Could you verify whether the entry CCOC(=O)C1=C(C)NC(C)=C(C(=O)OCC)C1c1ccccc1Cl shows growth inhibition of no less than 90%?
fulfilled

Item CCCCC1=NNC(=O)C1 with growth inhibition of 90% or above?
not fulfilled

Has O=C(Nc1cccc(C(F)(F)F)c1)Oc1ccc(Cl)cc1C(=O)c1ccccc1 a recorded growth inhibition greater than or equal to 90%?
fulfilled

Could you verify whether the entry O=c1ccc(N=Nc2ccccc2)ccc1O shows growth inhibition of no less than 90%?
fulfilled

Quick check: does CCCCCC#CCOC(=O)C(=[N+]=[N-])P(=O)(c1ccccc1)c1ccccc1 have growth inhibition greater than or equal to 90%?
fulfilled

// inclusive: growth inhibition at least 90%? input: O=Cc1coc2ccccc2c1=O
not fulfilled

Does the reported growth inhibition for OCCN(CCO)c1ccc2c(c1)Cc1ccccc1-2 fall at or above the 90% mark?
not fulfilled

For this molecule, is measured growth inhibition 90% or higher? CC(=O)c1cc2c(Cl)cc(Cl)cc2oc1=O
not fulfilled

Given COc1ccc(/C=C2\SC(=S)N(C=C3C(=O)NC(=S)NC3=O)C2=O)cc1OC , state whether its growth inhibition is at least 90%.
fulfilled

* * *

Assay: NCI Yeast Anticancer Drug Screen. Data for the rad14 strain (AID 159);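 further: 0% = growth of vehicle-treated control cultures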
Details: S. cerevisiae rad14 strain growth inhibition; at 100.0 µM; stronger effect = higher value
This is part of a sample that, as a whole, favours compounds with a hit. Of some 79,000 tested, about 15% had one in any assay.
Task for the reader: assign each of the following compounds its reported growth inhibition.
Quick reminder: number only, in %, skip the unit.

I am curious: what growth inhibition value has been reported for CC(=O)Oc1ccc(N2C(=O)C3c4[nH]c5ccccc5c4C4CCC(C(C)(C)C)CC4C3C2=O)cc1 (stereo not given) ?
95

What value of growth inhibition has been reported for the following compound? O=[N+]([O-])c1cc(S(=O)(=O)Nc2ccccc2)ccc1Cl
98

# query: growth inhibition of entry CCN(CC)CC(O)c1cc(-c2ccc(Cl)cc2)nc2c(-c3ccccc3)cccc12 (stereo not given)
95

growth inhibition for CCC(=O)Oc1ccc(/C=N/NC(N)=S)nc1 ?
12

Given the compound O=[N+]([O-])c1c(/C=N/Nc2ccccc2)oc(-c2ccc3c(c2)OCO3)c1-c1ccc2c(c1)OCO2 , what is its reported growth inhibition?
91

Suppose we examine the compound CCOC(=O)C(NC(=O)CC)(N1CCN(c2cc3c(cc2F)c(=O)c(C(=O)O)cn3C2CC2)CC1)C(F)(F)F (stereo not given) ; what growth inhibition value has been reported?
91

What does the data say about its growth inhibition? Entry: O=C1C=CC(=O)N1c1ccc(I)cc1
98

Consider the compound Cc1cc(Cl)ccc1NC(=O)/C(Cl)=C1/Sc2ccccc2NC1=O and give its measured growth inhibition.
2

Endpoint output: growth inhibition of Clc1c(Cl)c(Cl)c2c(nnn2C2CCCO2)c1Cl (stereo not given) . Value?
75

I have this compound here, Cc1ccc(S(=O)(=O)Nc2ccc3c(c2)C(O)c2ccccc2-3)cc1 (stereo not given) , and I need its recorded growth inhibition.
23

GET /values?readout=growth inhibition&item= NNC(=S)Nc1cccc2ccccc12
28

Recorded growth inhibition for CC1=CCC(C(C)(C)c2ccc(O)cc2)CC1 (stereo not given) , please?
98

Quick check: growth inhibition of O=C(NC(=S)Nc1ccccn1)c1ccccc1 ?
-23

What value of measured growth inhibition is listed for COc1ccc(N2C(=O)CC(Cl)C2=O)cc1 (stereo not given) ?
100

Query: growth inhibition; subject: Clc1nc(C(Cl)Cl)nc2sc3c(c12)CCCC3
69

Could you tell me which growth inhibition is on file for Nc1ccc(S(=O)(=O)Nc2ccc(Nc3c4ccccc4nc4ccccc34)cc2)cc1 ?
58

Return reported growth inhibition; argument: Nc1cc(F)cc2c1-c1ccc(F)cc1C2
94

I have this compound here, CN(C)c1ccc(/C=C/c2ccnc3ccccc23)cc1N , and I need its recorded growth inhibition.
17

I am curious: what growth inhibition value has been reported for On1cnc(=S)c2[nH]cnc21 ?
-14

Tell me the measured growth inhibition of O=C1c2ccccc2C(=O)c2cc(S(=O)(=O)Nc3ccccc3)ccc21 , please.
11

So what's the measured growth inhibition for this one? Cc1ccccc1NC(=O)Cc1csc(N/N=C2\NC(=O)/C(=C/c3cccc([N+](=O)[O-])c3)S2)n1
22

Can you look up the measured growth inhibition of CN(CC(=O)O)c1ccc(/C=C/c2ccnc3ccccc23)cc1 for me?
32

Consider the compound shown here: CCOP1(=O)C=C(Sc2ccc([N+](=O)[O-])cc2[N+](=O)[O-])C(C)(C)O1 (stereo not given) What is its recorded growth inhibition?
43

What does the data say about its growth inhibition? Entry: O=C1NC(c2c(Cl)cccc2Cl)Nc2ccccc21 (stereo not given)
89

# lookup: growth inhibition of Cc1cccc(/C=N\NC(=S)N2CCCCC2)n1
98

For O=S(=O)(N/N=C/c1cccc(Cl)c1)c1ccccc1 , what is its reported growth inhibition?
99

I have this compound here, O=C(/C=C/c1cccc(Br)c1)c1ccc(Cl)cc1 , and I need its recorded growth inhibition.
46

If you can, please state the reported growth inhibition value of Cc1cccc(/C=N/NC(=S)N(C)CCc2ccccn2)n1 .
99

So what's the measured growth inhibition for this one? [N-]=[N+]=NC(c1ccccc1)(c1ccccc1)c1ccccc1
94

Field request: growth inhibition | item: CC(C)c1[nH]nc(C(N)=O)c1N=NN(C)C
29

Please look up its growth inhibition: CN(C)CCNc1cccc2sc3ccc(O)cc3c(=O)c12
19

Item under review: COc1cccc(C(c2cc3c(cc2O)OCO3)N2CCOCC2)c1OC (stereo not given) . Reported growth inhibition?
21

Quick one: growth inhibition for O=S1(=O)c2ccccc2N=C(c2ccccc2Cl)CC1c1ccc(F)cc1 (stereo not given) ?
-6

Param item = CC(=O)Oc1ccc(C(=O)c2ccccc2)c(O)c1 ; retrieve measured growth inhibition.
92

Fill in: growth inhibition of CC(=O)[C@]1(O)Cc2c(O)c3c(c(O)c2[C@@H](OC2CC(N)C(O)C(C)O2)C1)C(=O)c1c(OCc2ccccc2)cccc1C3=O (stereo not given in full) is ___
51

Recorded growth inhibition for O=[N+]([O-])c1cccc2nc3ccccc3c(NCCc3cccc[n+]3[O-])c12 , please?
99

Looking for the measured growth inhibition of CC(C)(C)[OH+][O-].[O-]c1ccc(Cl)cc1C=Nc1ccc(Cl)cc1[O-].[O]=[V] , can you help?
54

Given the entry O=C(/C=N/O)Nc1cc(Cl)c(Cl)cc1Cl , report its measured growth inhibition.
75

Field request: growth inhibition | item: Cc1onc(-c2ccccc2Cl)c1C1=N/C(=C/c2cc(Cl)cc(Cl)c2O)C(=O)O1
59

Name the recorded growth inhibition for CCCCCCSc1nc(COC(=O)NC)c(COC(=O)NC)n1C .
99

What value of measured growth inhibition is listed for CC(=O)OCC1OC(O[C@H]2C=C[C@@H](C(=O)OCc3ccccc3)n3c(=O)n(-c4ccccc4)c(=O)n32)C(OC(C)=O)C(OC(C)=O)C1OC(C)=O (stereo not given in full) ?
20

May I ask what growth inhibition has been recorded for OC(CN1CCCCC1)c1cc(Cl)c(Cl)c(Cl)c1 (stereo not given) ?
39

Fill blank: measured growth inhibition of the compound CCCCCCCCN1C(=O)c2ccccc2C1=O is ____.
18

Fill in the blank: the reported growth inhibition of CC(=O)c1cc2c(Cl)cc(Cl)cc2oc1=O is ____.
14

For C/C=C/[P+](c1ccccc1)(c1ccccc1)c1ccccc1 , what is its reported growth inhibition?
97

* * *

Provide the recorded growth inhibition for the entries that follow.
Test: NCI Yeast Anticancer Drug Screen. Data for the sgs1 strain (AID 173);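 further: 0% = growth of vehicle-only control cultures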
Conditions: S. cerevisiae sgs1 mutant, at 3.7 µM, stronger effect = higher value
The panel holds about 79,000 compounds, 15% with a hit somewhere; the sample as a whole holds those more often. The source made the active and inactive calls. No stated cut-off is given here; in the data, active means growth inhibition above about 70%; inactive means the rest.

# input compound: Nc1cc(F)cc2c1-c1ccc(F)cc1C2 ; wanted: its growth inhibition
0% (inactive)

Which measured growth inhibition value corresponds to N#C/C(=C\c1ccccc1)c1ccccc1F ?
-1% (inactive)

Report growth inhibition for O=C1c2c(O)cccc2-c2nn(CCNCCO)c3ccc(NCCNCCO)c1c23 please.
5% (inactive)

Please give the measured growth inhibition for this compound: Cc1ccc(S(=O)(=O)N/N=C/C2(c3ccccc3)c3ccccc3-c3ccccc32)cc1
15% (inactive)

GET /values?readout=growth inhibition&item= CCN(CC)CC(O)c1cc(-c2ccc(Cl)cc2)nc2c(-c3ccccc3)cccc12 (stereo unspecified)
3% (inactive)

Can you look up the measured growth inhibition of O=C(O)c1[nH]c(=O)c2ccccc2c1Nc1ccccc1 for me?
-3% (inactive)

Quick one: growth inhibition for Nc1nc2c(c(=O)[nH]1)NC(CCNc1ccc(C(=O)O)cc1)CN2 (stereo unspecified) ?
-3% (inactive)

Field request: growth inhibition | item: CC(=O)OCC1OC(O[C@H]2C=C[C@@H](C(=O)OCc3ccccc3)n3c(=O)n(-c4ccccc4)c(=O)n32)C(OC(C)=O)C(OC(C)=O)C1OC(C)=O (stereo partly specified)
-15% (inactive)

I am curious: what growth inhibition value has been reported for Cc1cc(O)c2c(c1)C(=O)C=C(Br)C2=O ?
11% (inactive)

So what's the measured growth inhibition for this one? CN(Cc1cnc2nc(N)nc(N)c2n1)c1ccc(C(=O)NC(CCC(=O)O)C(=O)O)c2ccccc12 (stereo unspecified)
36% (inactive)

Need growth inhibition of CCOC(=O)Nc1ccc2c(c1)Cc1ccccc1-2 , thanks.
-12% (inactive)

If you can, please state the reported growth inhibition value of [Pt].c1ccc(P(CCP(c2ccccc2)c2ccccc2)CCP(c2ccccc2)c2ccccc2)cc1 .
5% (inactive)

Need growth inhibition of CCN1/C(=C/c2ccc3ccccc3[n+]2CC)C=Cc2ccccc21 , thanks.
-17% (inactive)

Fill in the blank: the reported growth inhibition of C=C1N(C)c2ccc(Cl)cc2C1(C)C is ____.
-46% (inactive)

State the recorded growth inhibition for this entry: CN(C)CC1CCCc2ccccc2C1=O (stereo unspecified)
-12% (inactive)

Returns the measured growth inhibition for the input compound. Input: CC(C)(C)[OH+][O-].[O-]c1ccc(Cl)cc1C=Nc1ccc(Cl)cc1[O-].[O]=[V]
16% (inactive)

Field request: growth inhibition | item: O=C1C=CC(=O)N1c1ccc(N2C(=O)C=CC2=O)cc1
99% (active)

# input compound: O=Nn1c2ccccc2c2ccccc21 ; wanted: its growth inhibition
5% (inactive)

Give its growth inhibition value. Item: O=C(Nc1cccc(C(F)(F)F)c1)Oc1ccc(Cl)cc1C(=O)c1ccccc1
30% (inactive)

Which growth inhibition reading was recorded for the compound NC(=O)N1c2ccccc2C=Cc2ccccc21 ?
-54% (inactive)

Reported growth inhibition, compound COc1ccc(/C=C2\SC(=S)N(C=C3C(=O)NC(=S)NC3=O)C2=O)cc1OC : ____
29% (inactive)

Requested read-out: growth inhibition. Entry: O=C1C(Cl)=C(Cl)C(Cl)(Cl)C(Cl)C1(Cl)Cl (stereo unspecified)
36% (inactive)

Would you mind telling me what growth inhibition value was observed for ClCCn1c(CCl)nc2ccc(Cl)cc21 ?
-31% (inactive)

Quick one: growth inhibition for O=C(NCCCCCN1CCC2(CCCCC2)CC1)C(C1CCCCC1)C1CCCCC1 ?
24% (inactive)

Give the measured growth inhibition of CC(=O)C1=C(C)O/C(=C/c2cccc(Cl)c2)C1=O .
36% (inactive)

Item under review: O=C(/C=C/c1cccc2ccccc12)c1ccc(Cl)cc1 . Reported growth inhibition?
-22% (inactive)

Recorded growth inhibition for O=c1[nH]cc(/C=N\Nc2ccccc2)c(=O)[nH]1 , please?
8% (inactive)

Look up growth inhibition for this compound: Cc1c(-c2ccccc2)[nH]c2ccccc12
19% (inactive)

Item N#Cc1sc2c(c1OC(=O)c1ccco1)c(=O)n(-c1ccccc1)c(=S)n2-c1ccccc1 has what recorded growth inhibition?
1% (inactive)

Reported growth inhibition, compound Cc1ccc(Nc2n[nH]c(=S)s2)cc1 : ____
-36% (inactive)

If you can, please state the reported growth inhibition value of CCC(=O)N(c1ccccc1)C(C)CN1CCC(O)(c2cccc(C(F)(F)F)c2)CC1 (stereo unspecified) .
10% (inactive)

Consider the compound c1ccc2c(c1)ccc1c3ccncc3ccc21 and give its measured growth inhibition.
12% (inactive)

Tell me the measured growth inhibition of CC1(C)C(C=O)=CCC1CC(N)=O (stereo unspecified) , please.
4% (inactive)

Consider the compound shown here: Nc1ccc(CCl)cc1Cc1c(O)ccc2ccccc12 What is its recorded growth inhibition?
1% (inactive)

Looking for the measured growth inhibition of COc1ccc(SCc2cc(OC)ccc2OC)cc1 , can you help?
-4% (inactive)

Need growth inhibition, item CCCCC(CC)C(=O)Oc1ccc(C(=O)c2ccccc2)c(O)c1 (stereo unspecified)
9% (inactive)

Suppose we examine the compound Cc1nc2c(ncn2CCO)c(=O)[nH]1 ; what growth inhibition value has been reported?
8% (inactive)

Record request: growth inhibition value, item Cc1ccc(Nc2c3c(c(C#N)c4nc5ccccc5n24)CCCC3)cc1
34% (inactive)

Can you share its growth inhibition? I mean this compound: NC(N)=NCCCS(=O)(=O)Nc1ccc(Nc2c3ccccc3nc3cc([N+](=O)[O-])ccc23)cc1
1% (inactive)

I am curious: what growth inhibition value has been reported for C/C=C/[P+](c1ccccc1)(c1ccccc1)c1ccccc1 ?
31% (inactive)

For COc1cc(NCc2ccc3nc(N)nc(N)c3c2C)cc(OC)c1OC , what is its reported growth inhibition?
-2% (inactive)

# lookup: growth inhibition of CCCCC1=NNC(=O)C1
12% (inactive)

Query: growth inhibition; subject: O=c1ccc(N=Nc2ccccc2)ccc1O
62% (inactive)

Find the recorded growth inhibition belonging to CC[C@@]1(OC(=O)CCC(=O)O)C(=O)OCc2c1cc1n(c2=O)Cc2cc3ccccc3nc2-1 and report it.
21% (inactive)

Reported growth inhibition, compound COc1ccc(/C=C(\NC(=O)c2ccccc2)C(=O)NN(C)c2ccnc3cc(Cl)ccc23)cc1OC : ____
3% (inactive)

For CN(C)Cc1cccc(CN(C)C)[c]1[Sn]([Br])([c]1ccccc1)[c]1ccccc1 , what is its reported growth inhibition?
44% (inactive)
